Numbers sourced from PubChem BioAssay (Tox21).

Experiment: qHTS assay to identify small molecule antagonists of the estrogen receptor beta (ER-beta) signaling pathway - cell viability counter screen (AID 1259382); note: nearly all actives have a fitted effect of over 55% in size
Conditions: ER-beta-UAS-bla HEK293T viability, CellTiter-Glo luminescence, 16 h; series mostly up to 92.4 µM
Results filed as inconclusive are left out. Activity calls are given as the source filed them. Calls come from the whole dose curve; as a rule, active = well fitted cell-killing curve with a large enough effect in the repeat runs; inconclusive = weak or mixed curves; inactive = flat fitted curve, though single readings scatter.
Outcome field: choose from T = active, F = inactive

Given CC[N+](CC)(CC)Cc1ccccc1 , state the outcome it received in this test.
F

For CCCCN(C)C , what call appears in the results of this test?
F

Could you kindly confirm the outcome this assay logged for CCCCNc1c(C(=O)OCC)c(C)nc2c1cnn2CC ?
F

Could you kindly confirm the outcome this assay logged for CC(=O)OC1CCCCC1 ?
F

Dear colleague, could you share the recorded outcome for O=C[C@H](O)[C@H](O)[C@H](O)CO when you have a moment?
F

Dear all, I need the recorded test outcome for CCOC(=O)C1=C(C)NC(C)=C(C(=O)OCC)C1c1ccccc1/C=C/C(=O)OC(C)(C)C , thank you.
F

Tell me the assay call for C[C@]12CC[C@H]3C(=CCc4cc(O)ccc43)[C@@H]1CCC2=O please.
T

Tell me the assay call for O=S(=O)(O)CCCN1CCOCC1 please.
F

Can you look up the reported call for O=C1c2c(O)ccc([N+](=O)[O-])c2C(=O)c2c([N+](=O)[O-])ccc(O)c21 for me?
T

Fill in: this test's call for C=CC(C)C#N (centres undefined) is ___
F

// outcome(item) with item = C=CC(C)(CCC=C(C)C)OC(=O)/C=C/c1ccccc1 (centres undefined)
F

# outcome recorded in this test, key = CCCOc1sc(C(=O)N2CCC(c3cc(CN)ccc3F)CC2)c(C)c1Br
T

Check the results log: what was the call for CO[C@H]1C=CO[C@@]2(C)Oc3c(C)c(O)c4c(O)c(cc(O)c4c3C2=O)NC(=O)/C(C)=C\C=C/[C@H](C)[C@H](O)[C@@H](C)[C@@H](O)[C@@H](C)[C@H](OC(C)=O)[C@@H]1C ?
T

Short answer needed: outcome of this test for CC(C(O)c1ccccc1)N(C)CCOC(c1ccccc1)c1ccccc1 (centres undefined) ?
T

Call for entry CN(Cc1cc(Br)cc(Br)c1N)C1CCCCC1 :
F

Dear all, I need the recorded test outcome for C(=C/c1ccccc1)/c1ccccc1 , thank you.
F

Please state the recorded outcome for this compound: CCC(C)(C)c1cc(O)c(C(C)(C)CC)cc1O
F

Per the records of this test, what outcome belongs to CCCCC(CC)COC(=O)c1ccc(O)cc1 (centres undefined) ?
T

Dear all, I need the recorded test outcome for COC(=O)C1=C(C)NC(C)=C(C(=O)OCCCN2CCC(c3ccccc3)(c3ccccc3)CC2)C1c1cccc([N+](=O)[O-])c1 (centres undefined) , thank you.
T

I would be grateful if you could indicate the recorded call for CCN(CC)CCSC(=O)C(c1ccccc1)c1ccccc1 .
F

// return assay outcome for CCc1cccc(CC)c1NC(=O)C(=O)O
F

What did the test return for CCCCCCCC/C=C/CCCOC(C)=O ?
F

Each compound tested received a call. Report the one for COCC(=O)O[C@]1(CCN(C)CCCc2nc3ccccc3[nH]2)CCc2cc(F)ccc2[C@@H]1C(C)C .
T

Which outcome did this test record for the compound c1ccc(Sc2ccccc2)cc1 ?
F

Please indicate how the test categorized CN1CN(C)CN(C)C1 .
F

Dear all, I need the recorded test outcome for Cc1c(-c2ccc(O)cc2)n(Cc2ccc(OCCN3CCCCCC3)cc2)c2ccc(O)cc12 , thank you.
T

Tell me the recorded outcome of this test for CCCCCCCCCCCCN(CCO)CCO .
T

Which outcome did this test record for the compound OCCCS ?
F

GET /call?item= CC1CNCC(C)O1 (centres undefined) returns the recorded outcome of this test.
F

What is the recorded call for this compound in the test? C=C[C@](C)(O)CC[C@@H]1[C@@]2(C)CCCC(C)(C)[C@@H]2CC[C@@]1(C)O
T

// return assay outcome for c1ccc2c(c1)CCC2
F

Identify the outcome logged in this assay for the compound shown: O=C(Oc1ccccc1)c1cccc(C(=O)Oc2ccccc2)c1
F

For this compound, state the assay outcome: Nc1ncnc2c1ncn2[C@@H]1O[C@H](COP(=O)(O)O)[C@@H](O)[C@H]1O
F

In this assay, the call recorded for CCN(CC)c1cccc(C)c1 was what?
F

Given O=Cc1ccc(F)cc1 , state the outcome it received in this test.
F

For CCC(=O)OCCc1ccccc1 , which call appears in the assay record?
F

# lookup: test call for O=C(Nc1ccc(Cl)c(Cl)c1)c1cc(Cl)cc(Cl)c1O
T

Tell me the assay call for COC(=O)NCCC[Si](OC)(OC)OC please.
F

I'd appreciate the recorded outcome for CCNc1nc(NC(C)CC)nc(OC)n1 (centres undefined) from this test.
F

----------
Test: qHTS assay to identify small molecule antagonists of the retinoid-related orphan receptor gamma (ROR-gamma) signaling pathway - cell viability counter screen (AID 1159520); note: nearly all actives have a fitted effect of over 50% in size
Conditions: Tet-on RORgamma CHO cells viability, ATP luminescence, 16 h; series mostly up to 92.4 µM
Inconclusive results are not listed. Activity calls are given as the source filed them. Calls come from the whole dose curve; as a rule, active = well fitted cell-killing curve with a large enough effect in the repeat runs; inconclusive = weak or mixed curves, or effect the other way; inactive = no such curve, though single readings can be large or run the other way.
Classes to choose from: 1 for active, -1 for inactive

Answer briefly: the call reported for CN(C)CCCN1c2ccccc2CCc2ccccc21 in this assay.
-1

Hi, sorry to bother you, what did the test record for CC(C)(C)CC(C)(C)c1ccccc1O ?
1

Assay result, entry Cc1cccc(N(C)C)c1 — outcome?
-1

Kindly provide the recorded test outcome for the following compound: CC1CCCCN1CCCOC(=O)c1ccc(OC2CCCCC2)cc1 (stereo not given)
-1

Test call for this compound, please: OCCC(O)CO (stereo not given)
-1

Hi, do you know how CC(C)(c1cc(Br)c(O)c(Br)c1)c1cc(Br)c(O)c(Br)c1 came out in this test?
1

Check the results log: what was the call for CCCC(=O)OCC(COC(=O)CCC)OC(=O)CCC ?
-1

I would be grateful if you could indicate the recorded call for CN(C)CCCN1c2ccccc2Sc2ccc(C(F)(F)F)cc21 .
-1

// param item: CCCCCCCOC(=O)c1ccccc1C(=O)OCCCCCCC ; yields the recorded call
-1

I would be grateful if you could indicate the recorded call for O=C(O)c1cccc(Cl)n1 .
-1

Dear all, I need the recorded test outcome for CCO[Si](CCCSSSSCCC[Si](OCC)(OCC)OCC)(OCC)OCC , thank you.
-1

Dear colleague, could you share the recorded outcome for O=C(O)CC(=O)O when you have a moment?
-1

What call does the record list for CC1(C)C(=O)N(Br)C(=O)N1Br ?
-1

# outcome recorded in this test, key = CCC(C)c1cc([N+](=O)[O-])cc([N+](=O)[O-])c1OC(=O)OC(C)C (stereo not given)
1

Record request — test call for CCN(CC)CCSC(=O)C(c1ccccc1)c1ccccc1
-1

Can you look up the reported call for CCOCN(C(=O)CS(=O)(=O)O)c1c(C)cccc1CC for me?
-1

What is the recorded call for this compound in the test? Cc1ccc2ccc3cccc4ccc1c2c34
-1

Identify the outcome logged in this assay for the compound shown: C[Si](C)(C)Cl
-1

# lookup: test call for CCOC(=O)[C@@](C)(N)Cc1ccc(O)c(O)c1
-1

I would be grateful if you could indicate the recorded call for OCCCCl .
-1

Could you please tell me the result logged for CO[Si](CCC1CCC2OC2C1)(OC)OC (stereo not given) in this assay?
-1

Could you kindly confirm the outcome this assay logged for O=C(NO)c1ccccc1 ?
-1

Recorded call for CCCCCCCCCCCCCOP(=O)(O)O ?
-1

What is the recorded call for this compound in the test? C/C=C/CO
-1

What classification did CCC1CCCCC1 end up with in this test?
-1

Please let me know the test result on file for CC1=CP(=O)(c2ccccc2)CC1 (stereo not given) .
-1

Record lookup: outcome of this test for CC(=O)Oc1ccc(C2(c3ccc(OC(C)=O)cc3)Oc3ccccc3NC2=O)cc1 ?
-1

Check the results log: what was the call for Cc1cnccn1 ?
-1

# lookup: test call for CN1[C@@H]2CC[C@@H]1CC(OC(=O)C(CO)c1ccccc1)C2 (stereo not given in full)
-1

Look up the recorded call for CCCCCCCCCCCCCCNCCO in this test.
1

----------
Molecular target: Aromatase (Homo sapiens) (UniProt P11511)
Sequence (P11511 whole entry, looked up): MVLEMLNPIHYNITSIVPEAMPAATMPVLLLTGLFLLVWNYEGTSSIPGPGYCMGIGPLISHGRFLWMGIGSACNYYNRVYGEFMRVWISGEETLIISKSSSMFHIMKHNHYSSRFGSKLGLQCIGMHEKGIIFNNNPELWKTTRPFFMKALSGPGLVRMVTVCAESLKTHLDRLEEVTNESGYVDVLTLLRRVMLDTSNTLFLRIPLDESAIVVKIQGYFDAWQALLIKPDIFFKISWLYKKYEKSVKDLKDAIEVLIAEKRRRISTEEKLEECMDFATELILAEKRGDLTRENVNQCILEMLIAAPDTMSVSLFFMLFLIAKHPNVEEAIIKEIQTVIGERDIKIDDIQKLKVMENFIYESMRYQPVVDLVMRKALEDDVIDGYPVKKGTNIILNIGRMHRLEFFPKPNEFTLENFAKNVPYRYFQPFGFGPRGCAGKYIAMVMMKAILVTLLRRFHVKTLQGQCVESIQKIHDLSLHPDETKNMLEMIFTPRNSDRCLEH
Experiment: qHTS assay to identify aromatase inhibitors (AID 743083); note: nearly all actives have a fitted effect of over 55% in size
Conditions: MCF-7 aro ERE, testosterone-driven ERE luciferase, 24 h; series mostly up to 70.3 µM
Records with an inconclusive call do not appear. The source made the active and inactive calls. Calls come from the whole dose curve; as a rule, active = well fitted inhibition curve with a large enough effect in the repeat runs; inconclusive = weak or mixed curves; inactive = no such curve, though single readings can be large or run the other way.
Give your call using only these classes: 1.0 (active), 0.0 (inactive)

Field: outcome | Entry: COC(=O)CC(C)CCC=C(C)C (centres undefined)
0.0

Each compound tested received a call. Report the one for CNC(=S)NN .
1.0

Hi team, can someone confirm the assay call for COc1cc(C=C2CCC/C(=C\c3ccc(O)c(OC)c3)C2=O)ccc1O ?
1.0

Hey, what did the test say about O=C1OC(=O)c2cccc3cccc1c23 ?
0.0

Answer briefly: the call reported for O=Cc1ccc(F)cc1 in this assay.
0.0

Can you look up the reported call for CN1[C@@H]2CC[C@@H]1CC(OC(=O)C(CO)c1ccccc1)C2 (some centres undefined) for me?
0.0

Could you kindly confirm the outcome this assay logged for C=CC(=C)CCC=C(C)C ?
0.0

Identify the outcome logged in this assay for the compound shown: CCNc1nc(NC(C)CC)nc(OC)n1 (centres undefined)
0.0

How did this test come out for O=C(O)CCCCCCC(=O)O ?
0.0

# fetch the recorded call for CC(=O)Oc1ccc(C2(c3ccc(OC(C)=O)cc3)Oc3ccccc3NC2=O)cc1 here
0.0

Assay result, entry Oc1ccc(-c2ccccc2)c(Cl)c1 — outcome?
0.0

Please share the test call associated with [O]=[Zr] .
0.0

I would be grateful if you could indicate the recorded call for CCCN(CCc1cccs1)[C@H]1CCc2c(O)cccc2C1 .
1.0

Which outcome did this test record for the compound CC(C)(C)CC(C)(C)c1ccccc1O ?
1.0
